# Test system: HBV
# method description: Anti-HBV activity in stable transfected HepG2.2.15 cell line (HBV DNA from secreted virions, realtime PCR)
# Assay type: cell-based
# assay context: Hepatitis B virus, HepG2.2.15, 144 h, HepG2.2.15 cells, 6 days of treatment, secreted virion HBV DNA; read-out: HepG2 2.15 EC50
Overview of recorded pEC50 for various compounds
Scale note: pEC50 = -log10(concentration in M).

Solved cases below.
O=C(Nc1ccccc1)c1cc(S(=O)(=O)NC2CCCCC2)ccn1 ... 4.95
COc1cc(NC(=O)c2cccc(S(=O)(=O)NC3(C)COC3)c2)ccc1F ... 5.91
CC(C)(C)NS(=O)(=O)c1cccc(C(=O)Nc2ccc(F)cc2)c1 ... 5.91

Please give the measured pEC50 for this compound: Cc1cc(NC(=O)c2cccc(S(=O)(=O)N[C@@H](C)C3CC3)c2)ccc1F
6.33

Please give the measured pEC50 for this compound: Cc1cc(NC(=O)c2cccc(S(=O)(=O)N[C@@H]3CCc4ccccc4[C@H]3O)c2)ccc1F
6.12

Please give the measured pEC50 for this compound: Cc1cc(F)cc(NC(=O)c2cccc(S(=O)(=O)NC3CCCC3)c2)c1
6.96

Please give the measured pEC50 for this compound: Cc1ccc(S(=O)(=O)NC2(C)COC2)c(F)c1C(=O)Nc1ccc(F)c(Cl)c1
6.57

Please give the measured pEC50 for this compound: Cc1cc(NC(=O)c2cccc(S(=O)(=O)NC3CCN(C(=O)OC(C)(C)C)C3)c2)ccc1F (centres unmarked)
6.72

Please give the measured pEC50 for this compound: O=C(Nc1ccc(F)cc1)c1cc(S(=O)(=O)N2CCOCC2)ccc1Cl
5.86

====

# Test system: HBV
# method description: Anti-HBV activity in HepG2.117 cell line (Tet-off, intracellular HBV DNA, realtime PCR)
# Assay type: cell-based
# assay context: HepG2.117 cells, 3 days of treatment, intracellular HBV DNA; read-out: HepG2 117 EC50
measure name: pEC50
Scale note: pEC50 = -log10(concentration in M).

Solved cases below.
Cc1cc(NC(=O)c2cccc(S(=O)(=O)NC3CCC(O)C3)c2)ccc1F (single isomer, unassigned) [Compound 145a] ... 6.68
Cc1cc(NC(=O)c2cccc(S(=O)(=O)NC3Cc4ccccc4C3O)c2)ccc1F (single isomer, unassigned) [Compound 141a] ... 5.78

Continue with the next compound.
Please give the measured pEC50 for this compound: Cc1cc(NC(=O)c2cccc(S(=O)(=O)NC3CCC(O)C3)c2)ccc1F (single isomer, unassigned) [Compound 145c]
6.47

====

Overview of recorded EC50 for various molecules
# Tested on: HBV
# method description: Anti-HBV activity in stable transfected HepG2.2.15 cell line (HBV DNA from secreted virions, realtime PCR)
# Assay type: cell-based
# assay context: Hepatitis B virus, HepG2.2.15, 144 h, HepG2.2.15 cells, 6 days of treatment, secreted virion HBV DNA; read-out: HepG2 2.15 EC50

Solved cases below.
Cc1cc(C#N)cc(NC(=O)c2cccc(S(=O)(=O)NC3CCCC3)c2)c1 ... 1200 nM
Cc1cc(NC(=O)c2cccc(S(=O)(=O)N[C@@H]3CCCC[C@@H]3O)c2)ccc1F (racemic) ... 590 nM
Cc1cc(NC(=O)c2cccc(S(=O)(=O)N[C@@H](C)[C@H](O)c3ccccc3)c2)ccc1F ... 910 nM
O=C(Nc1ccc(Br)cc1)c1ccc(Cl)c(S(=O)(=O)N2CCCCCC2)c1 ... 1670 nM
O=C(Nc1ccc(F)cc1)c1cc(S(=O)(=O)NC2CCCCC2)ccc1F ... 780 nM
Cc1cc(NC(=O)c2cccc(S(=O)(=O)NC(C)c3ccccn3)c2)ccc1F (centres unmarked) ... 530 nM
Cc1cc(NC(=O)c2cccc(S(=O)(=O)NCC(F)(F)F)c2)ccc1F ... 170 nM

Continue with the next molecule.
Form entry - test system: HBV; read-out: EC50; molecule: Cc1cc(NC(=O)c2cccc(S(=O)(=O)N[C@H]3C[C@H](O)C3)c2)ccc1F [Compound 184a]
310 nM

====

# Tested on: HBV
# method description: Anti-HBV activity in stable transfected HepG2.2.15 cell line (HBV DNA from secreted virions, realtime PCR)
# Type: cell-based
# assay context: Hepatitis B virus, HepG2.2.15, 144 h, HepG2.2.15 cells, 6 days of treatment, secreted virion HBV DNA; read-out: HepG2 2.15 EC50
pEC50: −log10 of the molar value.
Kindly return Fulfilled if reported pEC50 is no lower than 6; return Not fulfilled if it is lower.

Example entries and their recorded answers appear below.
Cc1cc(NC(=O)c2cccc(S(=O)(=O)N[C@H](C)C(F)(F)F)c2)ccc1F ... Fulfilled
O=C(Nc1ccccc1)c1ccc(S(=O)(=O)N2CCCCC2)o1 ... Not fulfilled

Hello, I need to know if CN(C)S(=O)(=O)c1cccc(C(=O)Nc2ccc(F)cc2)c1 has measured pEC50 not below 6. Thanks!
Not fulfilled

Hello, I need to know if O=C(Nc1ccccc1)c1cncc(S(=O)(=O)NC2CCCCC2)c1 has measured pEC50 not below 6. Thanks!
Not fulfilled

Hello, I need to know if CC1(NS(=O)(=O)c2cccc(C(=O)Nc3ccc(F)c(C(F)F)c3)c2F)COC1 has measured pEC50 not below 6. Thanks!
Fulfilled

Hello, I need to know if Cc1[nH]c(C(=O)Nc2ccccc2)c(C)c1S(=O)(=O)N1CCCCC1 has measured pEC50 not below 6. Thanks!
Not fulfilled

====

# Tested on: HBV
# method description: Anti-HBV activity in HepG2.117 cell line (Tet-off, intracellular HBV DNA, realtime PCR)
# Format: cell-based
# assay context: Hepatitis B virus, HepG2.117, 72 h, read-out: HepG2 117 EC50 (μM)
measure name: EC50
Remember to quote the unit after the number.

O=C(Nc1ccc(F)cc1)c1cc(S(=O)(=O)N2CCCCC2)cs1 [Compound 61] ... 15.4 µM

Continue with the next compound.
Form entry - test system: HBV; read-out: EC50; compound: Cc1cc(NC(=O)c2cccc(S(=O)(=O)NC(C)Cc3ccccc3)c2)ccc1F (centres unmarked) [Compound 169]
1.41 µM

====

# method description: Cytotoxicity in HepG2 cells, 4 days, Resazurin assay
# assay context: human, HepG2 cells
Overview of recorded CC50 at 4 days for various compounds

Solved cases below.
O=C(Nc1ccc(F)c(Cl)c1)c1c(F)ccc(S(=O)(=O)N[C@H]2CCOC2)c1F ... > 25 µM
O=C(Nc1ccc(F)cc1)c1cccc(S(=O)(=O)N2CCCCC2=O)c1 ... > 25 µM
Cc1cc(NC(=O)c2cccc(S(=O)(=O)NC(C)Cc3ccncc3)c2)ccc1F (centres unmarked) ... > 25 µM
Cc1cc(NC(=O)c2cccc(S(=O)(=O)N[C@H]3C[C@@H](O)C3)c2)ccc1F [Compound 184b] ... > 25 µM
Cc1cc(NC(=O)c2cccc(S(=O)(=O)NC3CCC(=O)N(C)C3)c2)ccc1F (centres unmarked) ... > 25 µM
N#Cc1ccc(NC(=O)c2cccc(S(=O)(=O)NC3CCCC3)c2)cc1 ... > 25 µM
C=Cc1cc(NC(=O)c2cccc(S(=O)(=O)NC3(C)COC3)c2)ccc1F ... > 25 µM
Cc1cc(NC(=O)c2cccc(S(=O)(=O)N[C@H]3c4ccccc4C[C@@H]3O)c2)ccc1F ... > 25 µM
Cc1cc(F)cc(NC(=O)c2cccc(S(=O)(=O)NC3CCCC3)c2)c1 ... 13.3 µM
Cc1cc(NC(=O)c2cccc(S(=O)(=O)NC3(C)COC3)c2F)ccc1F ... > 25 µM

Continue with the next compound.
Please give the measured CC50 at 4 days for this compound: Cc1cccc(NC(=O)c2cc(S(=O)(=O)N3CCCCC3)c(Cl)cc2Cl)c1
> 100 µM

====

# method description: Cytotoxicity in HepG2 cells, 4 days, Resazurin assay
# assay context: human, HepG2 cells
Overview of recorded CC50 at 4 days for various molecules

Cc1cc(NC(=O)c2cccc(S(=O)(=O)N[C@@H](C)[C@H](O)c3ccccc3)c2)ccc1F [Compound 143] ... > 25 µM
O=C(Nc1ccc(Cl)cc1)c1cc(S(=O)(=O)NC2CCCC2)ccc1F [Compound 51] ... 20.8 µM
O=C(Nc1ccc(F)c(Br)c1)c1c(F)ccc(S(=O)(=O)N[C@H]2CCOC2)c1F [Compound 198] ... > 25 µM

Continue with the next molecule.
Please give the measured CC50 at 4 days for this molecule: Cc1cc(NC(=O)c2cc(S(=O)(=O)NC(C)C)oc2C)ccc1F [Compound 230]
> 25 µM

====

# System: HBV
# method description: Anti-HBV activity in stable transfected HepG2.2.15 cell line (HBV DNA from secreted virions, realtime PCR)
# Assay type: cell-based
# assay context: Hepatitis B virus, HepG2.2.15, 144 h, HepG2.2.15 cells, 6 days of treatment, secreted virion HBV DNA; read-out: HepG2 2.15 EC50
Overview of recorded EC50 for various molecules
Number only, in nM; omit the unit.

Solved cases below.
O=C(Nc1ccc(F)cc1)c1cccc(S(=O)(=O)N2CCCCC2=O)c1 ... 3900
Cc1c(F)ccc(NC(=O)c2cccc(S(=O)(=O)NC3(C)COC3)c2)c1C ... 2740
Cc1cc(NC(=O)c2cccc(S(=O)(=O)NC3CC(O)C3)c2)ccc1F (centres unmarked) ... 150

Form entry - test system: HBV; read-out: EC50; molecule: O=C(Nc1ccccc1)c1cc(S(=O)(=O)NCc2ccccc2)ccc1Cl
800

Form entry - test system: HBV; read-out: EC50; molecule: CC(C)NS(=O)(=O)c1cccc(C(=O)Nc2ccc(F)c(C3CC3)c2)c1
320

Form entry - test system: HBV; read-out: EC50; molecule: O=C(Nc1ccc(F)c(F)c1)c1c(F)ccc(S(=O)(=O)N[C@H]2CCOC2)c1F
130

Form entry - test system: HBV; read-out: EC50; molecule: O=C(Nc1ccccc1)c1cccc(S(=O)(=O)NC2CCCC2)c1
600

Form entry - test system: HBV; read-out: EC50; molecule: Cc1cc(NC(=O)c2cccc(S(=O)(=O)NC3Cc4ccccc4C3O)c2)ccc1F (centres unmarked)
360
